yes (1) means recorded melting point is 200 °C or above; no (0) means it is below 200 °C.

State whether the measured melting point reaches 200 °C, counting equality as reaching it, for CCC(Cc1c(I)cc(I)c(N)c1I)C(=O)O (stereo not drawn)
no (0)

State whether the measured melting point reaches 200 °C, counting equality as reaching it, for `Cc1cc(NS(=O)(=O)c2ccc(N)cc2)nc(C)n1`
yes (1)

New cases:
State whether the measured melting point reaches 200 °C, counting equality as reaching it, for `CCCCCCC`
no (0)

State whether the measured melting point reaches 200 °C, counting equality as reaching it, for `C=C1C(=O)O[C@@H]2[C@H]1CC[C@H](C)[C@]1(O)C=CC(=O)[C@@]21C`
no (0)

State whether the measured melting point reaches 200 °C, counting equality as reaching it, for `O=c1oc2ccccc2cc1O`
no (0)

State whether the measured melting point reaches 200 °C, counting equality as reaching it, for `O=C(O)c1cnc(O)nc1O`
yes (1)

State whether the measured melting point reaches 200 °C, counting equality as reaching it, for `ClCCOc1ccccc1`
no (0)

###

Can you tell me melting point for the items I'm about to list?

Some entries whose results are on file:
According to the records, this molecule `CC/C(=C(\c1ccccc1)c1ccc(OCCN(C)C)cc1)c1ccccc1` displays melting point of 97 °C

According to the records, this molecule `NC(=O)N1CCCCC1` displays melting point of 105 °C

According to the records, this molecule `Nc1cccc2c(N)cccc12` displays melting point of 190 °C

According to the records, this molecule CC(Cl)C(Cl)(Cl)Cl (stereo unspecified) displays melting point of -64 °C

According to the records, this molecule `CS(=O)(=O)O.Cc1ccc(N(CC2=NCCN2)c2cccc(O)c2)cc1` displays melting point of 181 °C

State the recorded melting point for every item in the following list.
1. Fc1ccc(C(F)(F)F)cc1
2. CC(c1ccc(Cl)cc1)c1ccc(Cl)cc1
3. C/C(=C\CNc1ncnc2[nH]cnc12)CO
4. Nc1cccc2c(O)nnc(O)c12
5. Cc1ccc(C#N)cc1
6. c1ccoc1
7. COC(=O)c1cc(C(=O)OC)c(C(=O)OC)cc1C(=O)OC

1: -41.7 °C; 2: 56 °C; 3: 208 °C; 4: 330 °C; 5: 29.5 °C; 6: -85.6 °C; 7: 144 °C

State the recorded melting point for every item in the following list.
1. O=c1cc(-c2ccccc2)oc2cc(O)cc(O)c12
2. NS(=O)(=O)c1cc(-c2nnn[nH]2)c(NCc2cccs2)cc1Cl
3. CON(C)C(=O)Nc1ccc(Cl)c(Cl)c1
4. C=C(Br)c1ccccc1
5. CCc1cn([C@H]2C[C@H](O)[C@@H](CO)O2)c(=O)[nH]c1=O
6. Cc1ccc2ccc3ccccc3c2c1
7. CC(C)c1cc(C(C)C)cc(C(C)C)c1

1: 286 °C; 2: 220 °C; 3: 93 °C; 4: -44 °C; 5: 152 °C; 6: 65 °C; 7: -7.4 °C

State the recorded melting point for every item in the following list.
1. OCCN1CCN(CCCN2c3ccccc3C=Cc3ccccc32)CC1
2. COc1ccc(C(c2ccc(OC)cc2)C(Cl)(Cl)Cl)cc1
3. c1ccc2c(c1)CCc1ccccc1N2

1. 100 °C
2. 87 °C
3. 106 °C

Cited source: the OPERA property sets (Mansouri et al. 2018)
